Parameter solubility kinetic at 1 h: see the listing below.
- Method notes: Kinetic aqueous solubility in PBS pH 7.4 (HPLC-CAD)
- Type: physicochemical
- Condition: phosphate buffered saline (PBS), pH 7.4, aqueous buffer, kinetic from dmso stock, PBS pH7.4, room temperature, 1 hour equilibration, read-out: Concentration
Where a name gives a salt, the structure may show the parent alone.

>  <Molecule>
NC1(CNC(=O)c2ccc(-c3cncc(-c4cncc(F)c4)n3)cc2)CC1 [Example 6, ditrifluoroacetic acid salt]

>  <Result>
≥ 549 mM

$$$$
>  <Molecule>
N[C@@H]1CCCC[C@@H]1NC(=O)c1ccc(-c2cncc(-c3cncc(F)c3)n2)cc1 [Example 9, ditrifluoroacetic acid salt]

>  <Result>
293 mM

$$$$

Moving on to the next molecule.
// solubility kinetic at 1 h lookup, key: NC1(CNC(=O)c2ccc(-c3cncc(-c4cncc(F)c4)n3)cc2)CCC1 [Example 2, dihydrochloride]
≥ 335 mM
